- systemUnderTest: Neuronal acetylcholine receptor; alpha3/beta4 (Rattus norvegicus, UniProt P04757+P12392)
- Sequence (P04757 whole entry): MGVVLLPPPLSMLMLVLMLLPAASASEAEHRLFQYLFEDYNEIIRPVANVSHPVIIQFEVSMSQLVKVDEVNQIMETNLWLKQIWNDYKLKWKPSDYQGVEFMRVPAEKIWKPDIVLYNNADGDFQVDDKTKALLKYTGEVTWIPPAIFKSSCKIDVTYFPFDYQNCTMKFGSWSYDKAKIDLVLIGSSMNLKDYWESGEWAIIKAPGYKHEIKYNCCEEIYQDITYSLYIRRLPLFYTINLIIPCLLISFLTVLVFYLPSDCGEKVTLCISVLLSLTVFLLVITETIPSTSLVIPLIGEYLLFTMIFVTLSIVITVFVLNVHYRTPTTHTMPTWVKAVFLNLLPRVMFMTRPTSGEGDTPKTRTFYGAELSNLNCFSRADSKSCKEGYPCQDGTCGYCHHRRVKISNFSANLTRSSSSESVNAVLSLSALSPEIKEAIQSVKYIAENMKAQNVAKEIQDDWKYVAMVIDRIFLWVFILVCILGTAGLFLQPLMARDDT
- Sequence (P12392 whole entry): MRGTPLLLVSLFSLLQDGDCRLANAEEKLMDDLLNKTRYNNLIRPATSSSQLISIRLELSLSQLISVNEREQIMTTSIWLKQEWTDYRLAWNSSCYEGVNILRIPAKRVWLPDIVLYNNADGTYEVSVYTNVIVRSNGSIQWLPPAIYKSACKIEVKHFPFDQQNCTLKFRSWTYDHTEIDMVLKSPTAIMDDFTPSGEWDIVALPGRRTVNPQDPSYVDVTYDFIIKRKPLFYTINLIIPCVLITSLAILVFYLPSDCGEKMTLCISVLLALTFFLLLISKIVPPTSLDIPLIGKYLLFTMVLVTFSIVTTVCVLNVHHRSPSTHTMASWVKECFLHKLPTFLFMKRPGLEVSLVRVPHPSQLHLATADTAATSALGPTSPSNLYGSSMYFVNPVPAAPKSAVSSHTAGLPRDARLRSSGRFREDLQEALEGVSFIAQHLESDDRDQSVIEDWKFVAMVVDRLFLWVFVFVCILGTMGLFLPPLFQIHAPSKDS
- testMethodNotes: Agonist activity at rat alpha-3-beta-4 nAChR expressed in HEK293 cells by FMP assay
- Assay type: functional, cell-based
- conditionInfo: read-out: EC50
recordedEndpoint: pEC50
Interpret pEC50 as the negative base-10 log of the concentration measured in mol/L.

Known pEC50 results, listed for orientation:
molecule: CC(C)C(=O)OCCC(C)N(C)C (stereo not drawn)
pEC50: 4.62
//
molecule: CC(CCOC(=O)C1CCC1)N(C)C (stereo not drawn)
pEC50: 5.07

From here, focus on the item given below.
Request: Form: Entry = CC(=O)OCCC(C)N(C)C (stereo not drawn) | System = Neuronal acetylcholine receptor; alpha3/beta4 (Rattus norvegicus, UniProt P04757+P12392) | pEC50 = ____
Response: 4.64

meta.source: ChEMBL document CHEMBL1140206
